tested on: KM12 colon; assay: NCI tumour cell line growth inhibition, 48 h; in the data active = GI50 below about 0.43 µM; inactive = the rest
Possible outcomes: active, inactive

molecule: CC(=O)OC1C(O)COC(Oc2c(C)c3c4c(c2O)[C@@H](C)CC[C@@H]4[C@@H](C)C[C@H]3C=C(C)C)C1O (some centres not stated)
label-class: inactive

molecule: CCCCCn1ncc(-c2c(O)c(O)cc3c(O)c(-c4c(C)cc5c(-c6cnn(CCCCC)n6)c(O)c(O)cc5c4O)c(C)cc23)n1
label-class: active

molecule: Cc1cc(C)c(S(=O)(=O)Oc2ccccc2[N+](=O)[O-])c(C)c1
label-class: inactive

molecule: CCCCCCCCOC(=O)c1cc(O)c(O)c(O)c1
label-class: inactive

molecule: COc1cc(/C=C\c2cc(/C=C\c3ccc(O)c(OC)c3)n(C(=O)Nc3ccc(C(F)(F)F)cc3)n2)ccc1O
label-class: inactive

molecule: O=c1cc(-c2ccccc2)oc2cc(OCc3cn(Cc4ccc(F)cc4)nn3)cc(O)c12
label-class: inactive

molecule: COc1ccc(OC)c(-c2cn3nc(-c4c[nH]c5ccc(Br)cc45)sc3n2)c1
label-class: inactive

molecule: COc1cc2c(cc1O)CCN[C@@]21CS[C@H]2c3c(OC(C)=O)c(C)c4c(c3C(COC1=O)N1C2C2c3c(cc(C)c(OC)c3O)CC([C@@H]1O)N2C)OCO4 (some centres not stated)
label-class: active

molecule: CC(=O)[CH-]C(=O)c1ccccc1.CC(=O)[CH-]C(=O)c1ccccc1.CC(C)CCCC(C)[C@H]1CCC2[C@@H]3CCC4C[C@@H]([O-])CC[C@]4(C)C3CC[C@@]21C.CC(C)CCCC(C)[C@H]1CCC2[C@@H]3CCC4C[C@@H]([O-])CC[C@]4(C)C3CC[C@@]21C.Cl.[Ti+4] (some centres not stated)
label-class: inactive

molecule: CCCCCCCCCCCCCCCC[N+](C)(C)C
label-class: inactive

molecule: COc1ccc(/C=C2/CCOC2=O)cc1
label-class: inactive

molecule: N#C/C(=C/c1cccs1)c1cccs1
label-class: inactive

====

test system: SN12C renal; assay: NCI tumour cell line growth inhibition, 48 h

molecule: Cc1cc(C)c(S(=O)(=O)Oc2ccccc2[N+](=O)[O-])c(C)c1
TGI: > 100 µM

molecule: COc1ccc(-c2ccc(=O)oc2-c2cc(OC)c(OC)c(OC)c2)cc1O
TGI: > 100 µM

molecule: COc1ncnc2c1ncn2C/C(Br)=C(\Br)CCl
TGI: 9.52 µM

molecule: CN(C)c1ccc2c(SCC(=O)OCC(=O)[C@@]3(O)CC[C@H]4[C@@H]5CCC6=CC(=O)C=C[C@]6(C)[C@H]5C(=O)C[C@@]43C)c3ccc(N(C)C)cc3nc2c1
TGI: > 59.3 µM

molecule: COc1cc(/C=C\c2cc(/C=C\c3ccc(O)c(OC)c3)n(C(=O)Nc3ccc(C(F)(F)F)cc3)n2)ccc1O
TGI: 9.9 µM

molecule: O=c1cc(-c2ccccc2)oc2cc(OCc3cn(Cc4ccc(F)cc4)nn3)cc(O)c12
TGI: > 100 µM

molecule: N#CC(C(=N/NC(N)=S)/C(=N\NC(N)=S)C(C#N)c1ccccc1)c1ccccc1 (centres undefined)
TGI: > 10 µM

molecule: COc1ccc(/C=C/c2cc(=O)cc(/C=C/c3ccc(OC)c(O)c3)o2)cc1O
TGI: > 33.6 µM

molecule: CC(C)Nc1n[nH]c(=O)n1C(C)C
TGI: > 100 µM
